# System: HCC-2998 colon
# assay-summary: NCI-60 one-dose screen, 48 h
# particulars: 10 µM unless noted
The panel holds about 83,000 compounds, 20% with a hit somewhere; the sample as a whole holds those more often. Activity calls are given as the source filed them. Rule for the calls: active = growth percent below 10; inactive = the rest.
Field 'call' accepts active, inactive

Completed entries (count: 3):
Asked: Can you look up the reported call for "COc1ccc(/C=C2\CN(C(=O)C(Cl)Cl)C/C(=C\c3ccc(OC)cc3)C2=O)cc1" for me?
Given back: active

Asked: Can you look up the reported call for "COc1cc(C(=O)c2c(-c3ccccc3)oc3c(OC)cccc23)cc(OC)c1OC" for me?
Given back: active

Asked: Can you look up the reported call for "COc1ccc(C(=O)/C=C/c2ccc(N3CCCCC3)cc2)cc1OC" for me?
Given back: inactive

More entries:
Asked: Can you look up the reported call for "CCNc1ccc(-c2nc3ccccc3n3cccc23)cc1" for me?
Given back: inactive

Asked: Can you look up the reported call for "COc1ccc(C(=O)Cn2c(C(=O)c3ccc(Cl)cc3)nc3ccccc32)cc1" for me?
Given back: inactive

Asked: Can you look up the reported call for "O=C(CSc1nc(-c2ccccc2)cc(=O)[nH]1)Nc1nc(-c2ccccc2)cs1" for me?
Given back: inactive

Asked: Can you look up the reported call for "Cc1ccc2nc(-c3ccc(C(=O)NNC(=S)Nc4ccccc4)cc3)[nH]c2c1" for me?
Given back: inactive

Asked: Can you look up the reported call for "CC(=O)c1ccc(Nc2nccc(-c3ccc4ccccc4c3)n2)cc1" for me?
Given back: inactive

Asked: Can you look up the reported call for "O=C(/C=C/c1ccc(Oc2ccc(Br)cc2)cc1)c1ccc(Br)cc1" for me?
Given back: inactive

Asked: Can you look up the reported call for N#CC1CCc2c(c(-c3ccc4nc(N)sc4c3)nc3ccc4[nH]ncc4c23)C1 (stereo not given) for me?
Given back: inactive

Asked: Can you look up the reported call for "C=C1C(=O)O[C@H]2[C@H]1CC/C(CNC(=O)c1c[nH]c3ccc(F)cc13)=C\CC[C@@]1(C)O[C@@H]21" for me?
Given back: active
